# Tested on: HepG2
# Measurement description: cell viability relative to DMSO; higher = less toxic
# Experimental conditions: 72 h; 1000 nM
Outcome measure: cell viability (%)
All answers are understood in %, so give the number only.

Prompt line: Need cell viability of CC[C@@H]1C(=O)N(C)c2cnc(Nc3ccc(C(=O)NC4CCN(C)CC4)cc3OC)nc2N1C1CCCC1 , thanks.
Response line: 24.2

Prompt line: Given Nc1nc2c(c(N3CCNCC3)n1)CCC1=C2[C@@H]2CCCC[C@@H]2O1 , state its recorded cell viability.
Response line: 102

Prompt line: Requested read-out: cell viability. Entry: O=c1c(O[C@@H]2O[C@H](CO)[C@H](O)[C@H](O)[C@H]2O)c(-c2ccc(O)c(O)c2)oc2cc(O)cc(O)c12
Response line: 103

Prompt line: Bench note: what cell viability did O=C(O)c1cccnc1Nc1cccc(C(F)(F)F)c1 show?
Response line: 97.2

Prompt line: So what does the record say about cell viability for [O-][S+](c1ccccc1)c1ccc2nnnn2n1 (configuration not stated) ?
Response line: 98.1

Prompt line: I am curious: what cell viability value has been reported for C[C@]12C=CC(=O)C=C1CC[C@@H]1[C@@H]2C(=O)C[C@@]2(C)[C@H]1CC[C@]2(O)C(=O)CO ?
Response line: 101

Prompt line: Would you kindly share the measured cell viability for COc1ccc(CNC(=O)c2cc(-c3cncc(C)c3)ncc2-c2nccs2)nc1OC ?
Response line: 98.5
